Data provenance: patent US20250011363A1

- STUDY_TARGET: acetylcholine receptor
- PROCEDURE_SUMMARY: SPR, AchR immobilized on chip, peptide 10 uM
EXPERIMENTAL_ENDPOINT: Binding affinity (RU)

Q: Quick check: Binding affinity (RU) of KWQSK [5mer-194] ?
A: 84

Q: Quick check: Binding affinity (RU) of KGYSR [5mer-477] ?
A: 58

Q: Quick check: Binding affinity (RU) of RLQQR [5mer-460] ?
A: 74

Q: Quick check: Binding affinity (RU) of RSFQK [5mer-484] ?
A: 51

Q: Quick check: Binding affinity (RU) of RGFCK [5mer-494] ?
A: 54

Q: Quick check: Binding affinity (RU) of RSISR [5mer-483] ?
A: 51

Q: Quick check: Binding affinity (RU) of RVQTK [5mer-478] ?
A: 75

Q: Quick check: Binding affinity (RU) of RWYRK [5mer-169] ?
A: 61

Q: Quick check: Binding affinity (RU) of KLQCR [5mer-184] ?
A: 68

Q: Quick check: Binding affinity (RU) of RRFLK [5mer-458] ?
A: 65

Q: Quick check: Binding affinity (RU) of KWFSK [5mer-188] ?
A: 82

Q: Quick check: Binding affinity (RU) of KQFRK [5mer-167] ?
A: 64

Q: Quick check: Binding affinity (RU) of KRVYR [5mer-183] ?
A: 64

Q: Quick check: Binding affinity (RU) of RWQSK [5mer-462] ?
A: 69

Q: Quick check: Binding affinity (RU) of KRLQR [5mer-186] ?
A: 64

Q: Quick check: Binding affinity (RU) of RWLLK [5mer-490] ?
A: 60

Q: Quick check: Binding affinity (RU) of RLYTK [5mer-179] ?
A: 55

Q: Quick check: Binding affinity (RU) of KSIRR [5mer-493] ?
A: 57

Q: Quick check: Binding affinity (RU) of KVVSR [5mer-195] ?
A: 82

Q: Quick check: Binding affinity (RU) of RQVLR [5mer-454] ?
A: 77

Q: Quick check: Binding affinity (RU) of RWLQR [5mer-486] ?
A: 53

Q: Quick check: Binding affinity (RU) of RVIRK [5mer-193] ?
A: 80

Q: Quick check: Binding affinity (RU) of KLFSK [5mer-168] ?
A: 84

Q: Quick check: Binding affinity (RU) of KQFCK [5mer-482] ?
A: 75

Q: Quick check: Binding affinity (RU) of RSQLR [5mer-459] ?
A: 76

Q: Quick check: Binding affinity (RU) of RVRCR [5mer-191] ?
A: 75

Q: Quick check: Binding affinity (RU) of KGRQR [5mer-174] ?
A: 59

Q: Quick check: Binding affinity (RU) of RWLYK [5mer-455] ?
A: 61
